tested on: UO-31 renal; test: NCI-60 one-dose screen, 48 h (100 = growth as untreated, 0 = no growth, -100 = all killed); conditions: 10 µM
This is part of a sample that, as a whole, favours compounds with a hit. Of some 83,000 tested, about 20% had one in any assay.
Each entry gets NOT MET if its growth stays under 40%, and MET if its growth is 40% or above.

>  <compound>
CC(=O)CSC(C)=O

>  <class-assignment>
MET

$$$$
>  <compound>
COc1ccc2c(c1)O/C(=C\c1ncc([N+](=O)[O-])n1C)C2=O

>  <class-assignment>
NOT MET

$$$$
>  <compound>
COc1ccc(/C(=C2\O[C@@H]([C@H]3COC(C)(C)O3)[C@H]3OC(C)(C)O[C@@H]23)c2cc(OC)c(OC)c(OC)c2)cc1O

>  <class-assignment>
MET

$$$$
>  <compound>
CC(=O)OCc1cc(-c2nc3ccccc3[nH]c2=O)nn1-c1ccc(Cl)cc1

>  <class-assignment>
MET

$$$$
>  <compound>
C#Cc1ccc(-n2c(/C=C/c3ccc4ccccc4n3)nc3ncccc3c2=O)cc1

>  <class-assignment>
NOT MET

$$$$
>  <compound>
COc1cc(Cc2cc(-c3ccc(Cl)cc3)n[nH]c2=O)ccc1O

>  <class-assignment>
MET

$$$$
>  <compound>
CC1=C(N2CCOCC2)C(N2CCOCC2)=C(C)C(=O)C1=O

>  <class-assignment>
MET

$$$$
>  <compound>
Clc1cccc(-c2nc(-c3cccs3)no2)c1

>  <class-assignment>
MET

$$$$
>  <compound>
Cc1ccc(NC(=O)Nc2c(Cl)cccc2Cl)cn1

>  <class-assignment>
MET

$$$$
>  <compound>
CC(=O)N(C)c1ccc(Nc2ccc(Nc3ccc(N(C)C(C)=O)cc3)c3c2C(=O)c2ccccc2C3=O)cc1

>  <class-assignment>
NOT MET

$$$$
>  <compound>
Cc1cc(=O)[nH]c(N/N=C/c2ccccc2O)n1

>  <class-assignment>
MET

$$$$
>  <compound>
C=C(Cl)[C@@](Cl)(CBr)CC[C@@H](Br)C(C)(C)Cl

>  <class-assignment>
NOT MET

$$$$
>  <compound>
COc1cc2cc3c(nc2cc1OC)CCN3Cc1ccc(NC(=O)Nc2ccc(F)cc2F)cc1

>  <class-assignment>
MET

$$$$
>  <compound>
COc1ccccc1CNCCCN1C(=O)c2ccc3c4c(ccc(c24)C1=O)C(=O)N(CCCN)C3=O

>  <class-assignment>
NOT MET

$$$$
>  <compound>
COc1cc(Cl)cc(-c2nn(-c3cccc(NC(=O)Nc4ccc(Cl)c(C(F)(F)F)c4)c3)cc2-c2ccncc2)c1

>  <class-assignment>
NOT MET

$$$$
>  <compound>
Oc1[nH]c2cc(Cl)ccc2c1/C=c1/ccc2c(c1)N=C(c1cc(F)cc(F)c1)N=2

>  <class-assignment>
MET

$$$$
>  <compound>
Nc1ncnc2[nH]c(=O)[nH]c12

>  <class-assignment>
MET

$$$$
>  <compound>
COc1ccc(-c2nc3ncccn3c2-c2nnc(-c3ccc(F)cc3)o2)cc1

>  <class-assignment>
MET

$$$$
>  <compound>
COc1ccc(Nc2nc3ccc(NC(=O)NC4CCCCC4)cc3[nH]c2=O)cc1

>  <class-assignment>
MET

$$$$
>  <compound>
Cc1cc(Cl)nc(N(CCCNc2ccnc3cc(Cl)ccc23)Cc2cccs2)n1

>  <class-assignment>
NOT MET

$$$$
>  <compound>
COc1ccc(Nc2ccnc(NCCNc3ccnc4cc(Cl)ccc34)n2)cc1

>  <class-assignment>
MET

$$$$
>  <compound>
COc1cc(-c2cc(/C=C3\C(=O)Nc4ccc(Cl)cc43)[nH]n2)cc(OC)c1OC

>  <class-assignment>
NOT MET

$$$$
>  <compound>
O=C(NC(Cc1ccc(O)cc1)C(=O)N=Nc1c(O)[nH]c2ccccc12)c1ccccc1 (stereo not drawn)

>  <class-assignment>
MET

$$$$
>  <compound>
FC(F)(F)c1ccc(-c2cnc(-n3cc(COCCN4CCCCC4)nn3)nc2NC2CCCCCC2)cc1

>  <class-assignment>
NOT MET

$$$$
>  <compound>
COc1ccc(C2=NN(C(=O)c3ccc(S(C)(=O)=O)cc3)C(c3ccc(OC)c(OC)c3)C2)c(OC)c1 (stereo not drawn)

>  <class-assignment>
MET

$$$$
>  <compound>
COc1ccc2c(c1)C(=O)c1c-2c(OCCN(C)C)nc2cc(OC)c(OC)cc12

>  <class-assignment>
MET

$$$$
